Tested on: aggression induced by clonidine
Experiment: Inhibition of aggression induced by clonidine (Morpurgo)
Type: in vivo
Settings: Mus musculus, ip, 30 min before 46.4 mg/kg i.p. clonidine, mice; read-out: Aggression test (Morpurgo), ED50
Experimental: Test 3. Inhibition of aggression induced by clonidine This test was described by C. Morpurgo in European Journal of Pharmacology,vol. […] In this test 12 mice are separated into pairs and each mouse is injected intraperitoneally with a dose of the test compound. […] Clonidine at this dosage level produces an aggressive behaviour in the mice which expresses itself in violent bouts of fighting and biting. The mice are observed and their behaviour scored in accordance with a point system. […]
reported.endpoint: ED50 (mg/kg)
The figure you give is taken to be in mg/kg; do not add the unit.

ED50 value, target or system aggression induced by clonidine, for O=C(CCCN1CCN(CCOc2c(Cl)cccc2Cl)CC1)c1ccc(F)cc1 [2,6-dichlorophenyl, reference compound] : 7.4

ED50 value, target or system aggression induced by clonidine, for O=C(CCCN1CCN(Cc2ccc(F)cc2)CC1)c1ccc(F)cc1 [fluorobenzyl, no O-bridge, reference compound] : 7.6

ED50 value, target or system aggression induced by clonidine, for O=C(CCCN1CCN(CCOc2ccc(Cl)cc2)CC1)c1ccc(F)cc1 [4-chlorophenyl, reference compound] : 6

ED50 value, target or system aggression induced by clonidine, for Cc1ccc(Cl)c(OCCN2CCN(CCCC(=O)c3ccc(F)cc3)CC2)c1 : 0.35

ED50 value, target or system aggression induced by clonidine, for Cc1cc(Cl)ccc1OCCN1CCN(CCCC(=O)c2ccc(F)cc2)CC1 : 2.5

ED50 value, target or system aggression induced by clonidine, for COc1ccc(CN2CCN(CCCC(=O)c3ccc(F)cc3)CC2)cc1 [methoxyphenyl, no O-bridge, reference compound] : 4.7

ED50 value, target or system aggression induced by clonidine, for O=C(CCCN1CCN(CCOc2ccc([N+](=O)[O-])cc2)CC1)c1ccc(F)cc1 : 0.7

ED50 value, target or system aggression induced by clonidine, for Cc1cccc(OCCN2CCN(CCCC(=O)c3ccc(F)cc3)CC2)c1C : 4.6
